target: human 5-HT2Cedited receptor (Homo sapiens, UniProt P28335); test: Radioligand binding competition, 5-HT2Cedited; conditions: read-out: RLB 5-HT2Cedited IC50; selectivity panel
Sequence (P28335 33-458 limits assumed): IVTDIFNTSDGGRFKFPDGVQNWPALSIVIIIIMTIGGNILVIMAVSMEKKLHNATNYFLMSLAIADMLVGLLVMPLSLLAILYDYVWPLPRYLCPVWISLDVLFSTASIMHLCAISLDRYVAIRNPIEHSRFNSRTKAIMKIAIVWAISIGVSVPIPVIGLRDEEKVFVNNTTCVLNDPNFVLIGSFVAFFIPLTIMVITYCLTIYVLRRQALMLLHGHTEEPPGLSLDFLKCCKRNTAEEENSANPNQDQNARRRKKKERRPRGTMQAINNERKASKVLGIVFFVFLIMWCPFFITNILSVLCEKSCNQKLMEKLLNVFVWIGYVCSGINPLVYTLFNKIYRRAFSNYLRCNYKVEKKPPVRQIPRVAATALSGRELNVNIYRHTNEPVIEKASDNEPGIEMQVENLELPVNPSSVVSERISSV
ENDPOINT: IC50 (µM)
Field: numeric (µM). Do not append units.

[[record]]
compound = "O=c1[nH]c2ccccc2n1CCCCCN1CCN(c2ccccn2)CC1 [JLB012]"
target_entity = "human 5-HT2Cedited receptor (Homo sapiens, UniProt P28335)"
value = 5.25


Attention now shifts to the item below.
Quick one: IC50 of O=c1[nH]c2ccccc2n1CN1CCN(c2ccc(F)cc2)CC1 [Serodolin] ? 1.11

---

biological target: human 5-HT7a receptor (Homo sapiens (Human), UniProt P34969)
Sequence (P34969 other isoform, or with tags, fused parts or gaps): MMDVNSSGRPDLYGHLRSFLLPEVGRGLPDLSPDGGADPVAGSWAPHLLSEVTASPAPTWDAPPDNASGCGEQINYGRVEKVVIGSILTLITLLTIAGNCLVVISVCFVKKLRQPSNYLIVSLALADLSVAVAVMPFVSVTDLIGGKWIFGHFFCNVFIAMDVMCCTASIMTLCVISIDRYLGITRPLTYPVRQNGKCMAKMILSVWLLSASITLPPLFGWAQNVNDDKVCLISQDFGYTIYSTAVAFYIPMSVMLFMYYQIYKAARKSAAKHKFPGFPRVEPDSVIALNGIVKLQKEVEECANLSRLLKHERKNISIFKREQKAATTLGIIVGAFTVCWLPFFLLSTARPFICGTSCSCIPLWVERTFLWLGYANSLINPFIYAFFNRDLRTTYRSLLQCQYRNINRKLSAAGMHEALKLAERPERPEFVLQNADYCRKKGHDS
pIC50: −log10 of the molar value.
Returns TRUE if the recorded pIC50 is greater than or equal to 8, and FALSE otherwise.

[[record]]
compound = "O=c1[nH]c2ccccc2n1CCCCCN1CCN(c2ccccn2)CC1 [JLB012]"
target_entity = "human 5-HT7a receptor (Homo sapiens (Human), UniProt P34969)"
class_assignment = "TRUE"

[[record]]
compound = "Cc1ccc(N2CCCN(CCCCCn3c(=O)[nH]c4ccccc43)CC2)cc1 [JLB119]"
target_entity = "human 5-HT7a receptor (Homo sapiens (Human), UniProt P34969)"
class_assignment = "FALSE"

[[record]]
compound = "O=c1[nH]c2ccccc2n1CCCCCN1CCCN(c2ccccn2)CC1 [JLB118]"
target_entity = "human 5-HT7a receptor (Homo sapiens (Human), UniProt P34969)"
class_assignment = "FALSE"


Pending compound:
Textbook exercise: given the entry O=c1[nH]c2ccccc2n1CCCCCN1CCCN(c2ccc(F)cc2)CC1 [JLB060] , state whether its pIC50 is greater than or equal to 8. TRUE

---

# pIC50 per entry for human 5-HT1A receptor (Homo sapiens (Human), UniProt P08908)
Worth noting: pIC50 values are minus log10 of concentrations stated in mol/L.

// known answers, use as guide
[[record]]
chemical_string = "O=C(c1ccc(F)cc1)C1CCN(CCCCn2c(=O)[nH]c3ccccc32)CC1"
endpoint = "pIC50"
value = 6.05

[[record]]
chemical_string = "CC(C)(CCN1CCN(c2ccc(F)cc2)CC1)CCn1c(=O)[nH]c2ccccc21"
endpoint = "pIC50"
value = 6.78

[[record]]
chemical_string = "O=c1[nH]c2ccccc2n1CCCCCN1CCCN(c2ccc(F)cc2)CC1"
endpoint = "pIC50"
value = 6.07


Quick one: pIC50 of O=c1[nH]c2ccccc2n1CN1CCN(c2ccc(F)cc2)CC1 ? 6.69

Quick one: pIC50 of O=c1[nH]c2ccccc2n1CCCCCN1CCN(c2ccccn2)CC1 ? 7.38

---

target: human 5-HT7a receptor (Homo sapiens (Human), UniProt P34969)
In this section, each of the compounds is paired with its reported pIC50.
Worth noting: pIC50 values are minus log10 of concentrations stated in mol/L.

// known answers, use as guide
[[record]]
compound = "O=c1[nH]c2ccccc2n1CCCCCN1CC2(C1)CN(c1ccc(F)cc1)C2"
value = 6.76

[[record]]
compound = "O=c1[nH]c2ccccc2n1CN1CCN(c2ccc(F)cc2)CC1"
value = 8.94

[[record]]
compound = "Cc1nn(C)c(C)c1-c1cccc(CCN(C)C)c1 [E55888, reference compound]"
value = 8.57

[[record]]
compound = "O=c1[nH]c2ccccc2n1CCCCCN1C[C@@H]2CN(c3ccc(F)cc3)C[C@@H]2C1"
value = 8.22

[[record]]
compound = "CC(C)(CCN1CCN(c2ccc(F)cc2)CC1)CCn1c(=O)[nH]c2ccccc21"
value = 8.57

[[record]]
compound = "O=c1[nH]c2ccccc2n1CCCCCN1CCN(c2ccc(C(F)(F)F)cc2)CC1"
value = 8.14


Give human 5-HT7a receptor (Homo sapiens (Human), UniProt P34969) pIC50 for O=c1[nH]c2ccccc2n1CCCCCN1CCN(c2ccccc2F)CC1 8.48

Give human 5-HT7a receptor (Homo sapiens (Human), UniProt P34969) pIC50 for O=C(c1ccc(F)cc1)C1CCN(CCCCn2c(=O)[nH]c3ccccc32)CC1 9.54

Give human 5-HT7a receptor (Homo sapiens (Human), UniProt P34969) pIC50 for O=c1[nH]c2ccccc2n1CCOCCN1CCN(c2ccc(F)cc2)CC1 7.72

---

target: UniProtKB P28335; test: Radioligand binding competition, 5-HT2Cedited; settings: selectivity panel; read-out: RLB 5-HT2Cedited IC50
In this section, each of the compounds is paired with its reported IC50.
Field: numeric (nM). Do not append units.

[[record]]
compound = "O=C(c1ccc(F)cc1)C1CCN(CCCCn2c(=O)[nH]c3ccccc32)CC1 [MOA51]"
endpoint_unit = "nM"
value = 699

[[record]]
compound = "O=c1[nH]c2ccccc2n1CCCCCN1CCCN(c2ccc(F)cc2)CC1 [JLB060]"
endpoint_unit = "nM"
value = 902


Attention now shifts to the item below.
Quick one: IC50 of CC(C)(CCN1CCN(c2ccc(F)cc2)CC1)CCn1c(=O)[nH]c2ccccc21 [JLB094] ? 1100

---

In this section, each of the molecules is paired with its reported pKi.
target: human 5-HT2Cedited receptor (Homo sapiens); experiment: Radioligand binding competition, 5-HT2Cedited; conditions: read-out: RLB 5-HT2Cedited Ki; selectivity panel
Worth noting: pKi values are minus log10 of concentrations stated in mol/L.

[[record]]
molecule = "O=c1[nH]c2ccccc2n1CN1CCN(c2ccc(F)cc2)CC1 [Serodolin]"
value = 6.74


Quick one: pKi of O=c1[nH]c2ccccc2n1CCCCCN1CCN(c2ccccn2)CC1 [JLB012] ? 6.06

---

# pKi per entry for human 5-HT7a receptor (Homo sapiens (Human), UniProt P34969)
Worth noting: pKi values are minus log10 of concentrations stated in mol/L.

[[record]]
molecule = "O=c1[nH]ccn1CCCCCN1CCN(c2ccc(F)cc2)CC1"
endpoint = "pKi"
value = 7.92

[[record]]
molecule = "O=c1[nH]c2ccccc2n1CN1CCN(c2ccc(F)cc2)CC1"
endpoint = "pKi"
value = 9.10

[[record]]
molecule = "O=c1[nH]c2ccccc2n1CCCCCN1CCCN(c2ccc(F)cc2)CC1"
endpoint = "pKi"
value = 9.16

[[record]]
molecule = "O=c1[nH]c2ccccc2n1CCCCCN1CCN(c2ccccc2F)CC1"
endpoint = "pKi"
value = 8.64


Give human 5-HT7a receptor (Homo sapiens (Human), UniProt P34969) pKi for Cc1nn(C)c(C)c1-c1cccc(CCN(C)C)c1 [E55888, reference compound] 8.73

Give human 5-HT7a receptor (Homo sapiens (Human), UniProt P34969) pKi for O=c1[nH]c2ccccc2n1CCCCCN1CCN(c2ccccc2O)CC1 8.25

---

biological target: h5-HT7R (Homo sapiens (Human), UniProt P34969); test: cAMP accumulation (LANCE cAMP detection kit) in HEK-293 cells stably expressing h5-HT7R; type: cell-based; details: tested alone; read-out: IC50, inverse agonist effect on cAMP response
Sequence (P34969 1-432): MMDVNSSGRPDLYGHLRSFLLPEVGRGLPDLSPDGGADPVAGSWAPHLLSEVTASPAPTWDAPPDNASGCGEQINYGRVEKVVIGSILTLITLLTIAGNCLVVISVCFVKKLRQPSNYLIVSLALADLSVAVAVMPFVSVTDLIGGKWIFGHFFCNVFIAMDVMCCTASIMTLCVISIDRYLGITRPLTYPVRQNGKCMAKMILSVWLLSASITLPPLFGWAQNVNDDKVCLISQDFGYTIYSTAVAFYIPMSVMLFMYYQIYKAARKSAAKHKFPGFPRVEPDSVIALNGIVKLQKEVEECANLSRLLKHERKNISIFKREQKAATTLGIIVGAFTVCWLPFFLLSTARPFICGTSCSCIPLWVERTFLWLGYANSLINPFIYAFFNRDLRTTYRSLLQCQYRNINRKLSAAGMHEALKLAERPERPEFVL
ENDPOINT: IC50 (µM)
Field: numeric (µM). Do not append units.

Quick one: IC50 of O=c1[nH]c2ccccc2n1CN1CCN(c2ccc(F)cc2)CC1 [Serodolin] ? 0.014

---

In this section, each of the compounds is paired with its reported pIC50.
biological target: human 5-HT2A receptor (Homo sapiens (Human)); experiment: Radioligand binding competition, 5-HT2A; settings: selectivity panel; read-out: RLB 5-HT2A IC50
Worth noting: pIC50 values are minus log10 of concentrations stated in mol/L.

Quick one: pIC50 of CC(C)(CCN1CCN(c2ccc(F)cc2)CC1)CCn1c(=O)[nH]c2ccccc21 [JLB094] ? 8.21

Quick one: pIC50 of O=c1[nH]c2ccccc2n1CN1CCN(c2ccc(F)cc2)CC1 [Serodolin] ? 7.77

---

molecular target: human 5-HT2A receptor (Homo sapiens (Human), UniProt P28223)
Sequence (P28223 whole entry): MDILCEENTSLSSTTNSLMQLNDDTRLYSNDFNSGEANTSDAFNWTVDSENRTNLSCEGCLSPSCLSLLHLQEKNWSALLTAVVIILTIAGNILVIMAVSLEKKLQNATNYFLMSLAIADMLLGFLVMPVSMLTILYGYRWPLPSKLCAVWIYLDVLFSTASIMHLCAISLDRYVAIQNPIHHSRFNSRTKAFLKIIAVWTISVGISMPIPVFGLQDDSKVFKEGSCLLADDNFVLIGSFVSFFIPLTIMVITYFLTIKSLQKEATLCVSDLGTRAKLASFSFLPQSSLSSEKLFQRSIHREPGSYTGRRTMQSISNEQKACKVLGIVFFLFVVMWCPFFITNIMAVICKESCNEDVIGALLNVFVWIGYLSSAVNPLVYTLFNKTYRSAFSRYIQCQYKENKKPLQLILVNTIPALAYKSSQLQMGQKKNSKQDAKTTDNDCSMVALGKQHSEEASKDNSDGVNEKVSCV
In this section, each of the compounds is paired with its reported Ki.
Field: numeric (nM). Do not append units.

// known answers, use as guide
[[record]]
chemical_string = "O=c1[nH]c2ccccc2n1CCCCCN1CCN(c2ccccn2)CC1"
target_entity = "human 5-HT2A receptor (Homo sapiens (Human), UniProt P28223)"
value = 7.3

[[record]]
chemical_string = "O=c1[nH]c2ccccc2n1CN1CCN(c2ccc(F)cc2)CC1"
target_entity = "human 5-HT2A receptor (Homo sapiens (Human), UniProt P28223)"
value = 2.8

[[record]]
chemical_string = "CC(C)(CCN1CCN(c2ccc(F)cc2)CC1)CCn1c(=O)[nH]c2ccccc21"
target_entity = "human 5-HT2A receptor (Homo sapiens (Human), UniProt P28223)"
value = 1.02

[[record]]
chemical_string = "O=c1[nH]c2ccccc2n1CCCCCN1CCCN(c2ccc(F)cc2)CC1"
target_entity = "human 5-HT2A receptor (Homo sapiens (Human), UniProt P28223)"
value = 23


Give human 5-HT2A receptor (Homo sapiens (Human), UniProt P28223) Ki for O=C(c1ccc(F)cc1)C1CCN(CCCCn2c(=O)[nH]c3ccccc32)CC1 0.54

The values you see were collected from patent US20240199555A1.
